# TESTED TARGET: T1, human DR3 (TNFRSF25) expressed on cells (human, UniProt Q93038 25-417)
# T1 sequence: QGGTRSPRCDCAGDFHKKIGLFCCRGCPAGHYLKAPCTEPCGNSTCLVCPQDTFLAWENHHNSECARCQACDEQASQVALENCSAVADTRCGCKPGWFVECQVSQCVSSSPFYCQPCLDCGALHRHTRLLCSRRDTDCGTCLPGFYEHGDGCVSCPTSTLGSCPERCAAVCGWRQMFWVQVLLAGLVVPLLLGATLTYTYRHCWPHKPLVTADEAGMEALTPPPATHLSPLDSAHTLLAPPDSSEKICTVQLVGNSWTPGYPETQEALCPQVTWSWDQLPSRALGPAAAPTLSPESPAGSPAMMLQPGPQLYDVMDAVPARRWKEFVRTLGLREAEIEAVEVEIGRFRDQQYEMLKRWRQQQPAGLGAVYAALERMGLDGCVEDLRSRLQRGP
# METHOD NOTES: cell-based or functional assay
Consider the following binders and their measured Signal (FLU) readings.
Write the value in FLU as a bare number.

Guide cases for Signal (FLU), answers given:
Which Signal (FLU) reading was recorded for the binder VHg1/VLg2 (antibody, human IgG1, V domains shown, human IgG1) VH: QVQLVQSGGGLVQPGGSLRLSCAASGFTFSSYAMSWVRQAPGKGLEWVSTISDGDSYSYFPDSVKDRFTISRDNSKNTLYLQMNSLRAEDTSVYYCARDRIYGSVQYYAMDYWGQGTLVTVSS VL: DIQLTQSPSSLSASVGDRVTITCRASESVEFSGTSLMQWYQQKAGLAPKLLIYAASNVESGVPSRFSGSGSGTDFTLTISSLQPEDFGTYYCQQSRKLPYTFGQGTRLEIK ? 2.44e+06

I would be grateful if you could share the reported Signal (FLU) for VHg9/VLg2 (antibody, human IgG1, V domains shown) VH: EVQLVESGGGLVKPGGSLRLSCAASGFTFSSYAMSWVRQAPGKGLEWVSTISDGDSYSYFPDSVKDRFTISRDNAKNSLYLQMNSLRAEDTAVYYCARDRIYGSVQYYAMDYWGQGTLVTVSS VL: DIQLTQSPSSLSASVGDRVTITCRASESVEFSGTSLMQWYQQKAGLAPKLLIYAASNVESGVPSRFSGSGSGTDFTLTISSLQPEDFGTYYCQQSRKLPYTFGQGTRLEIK . 2.88e+06

---
May I ask what Signal (FLU) has been recorded for VHg6/VLg11 (antibody, human IgG1, V domains shown, human IgG1) VH: QVQLQQSGGGLVQPGGSLRLSCAASGFTFSSYAMSWVRQAPGKGLEWVATISDGDSYSYFPDSVKDRFTISRDNARNSLYLQMNSLRAEDTAVYYCARDRIYGSVQYYAMDYWGRGTLVTVSS VL: DIVMTQSPDSLAVSLGERATINCRASESVEFSGTSLMQWYQQKPGQPPKLLIYAASNVESGVPDRFSGSGSGTDFTLTISSLQAEDVAVYYCQQSRKLPYTFGQGTKLEIK ? 2.45e+06

Ref: patent WO2025083273A1
